Origin of the recorded values: PubChem BioAssay AID2060909

# Test system: 362531-283-R-J2-PDC complex spheroid viability
# Test: Anticancer human tumor 362531-283-R-J2-PDC patient-derived colon adenocarcinoma cell line growth inhibition [RAS]
# Reported Conditions: second compound 0.00949 µM; first compound 0.0316 µM; stronger effect = lower value
# Excerpt: RAS pathway inhibitors in Combinations in Complex Spheroids A high-throughput screen of multi-cell type tumor spheroids was designed to identify active combinations of RAS pathway inhibitors and targeted small molecules. Complex spheroids include a stromal component modeled by human endothelial cells (HUVEC) and fibroblasts modeled by human mesenchymal stem cells (MSCs). […] Compounds. […] If the clinical Cmax for an agent had not been determined, the highest concentration tested was 10 microM. […]
# viability, T/C annotations
Write the number in % without appending the unit.

Molecule: CCN1CCN(Cc2ccc(Nc3ncc(F)c(-c4cc(F)c5nc(C)n(C(C)C)c5c4)n3)nc2)CC1 + CCn1c(-c2cccnc2C(C)OC)c2c3cc(ccc31)N1CCOC(CC(NC(=O)C(C(C)C)N(C)C(=O)C3(F)CCN(C(=O)C#CC(C)(C)N(C)C)CC3)C(=O)N3CCCC(N3)C(=O)OCC(C)(C)C2)C1
viability, T/C / %: 55.3

input: For the molecule shown here, CC1(O)CCCC1n1c(=O)c(C(F)F)cc2cnc(NC3CCN(S(C)(=O)=O)CC3)nc21 (stereo not drawn) + CCn1c(-c2cccnc2C(C)OC)c2c3cc(ccc31)N1CCOC(CC(NC(=O)C(C(C)C)N(C)C(=O)C3(F)CCN(C(=O)C#CC(C)(C)N(C)C)CC3)C(=O)N3CCCC(N3)C(=O)OCC(C)(C)C2)C1 , give the reported viability, T/C.
output: 108

input: For the molecule shown here, C=CC(=O)Nc1cc(Nc2nccc(-c3cn(C)c4ccccc34)n2)c(OC)cc1N(C)CCN(C)C + CCn1c(-c2cccnc2C(C)OC)c2c3cc(ccc31)N1CCOC(CC(NC(=O)C(C(C)C)N(C)C(=O)C3(F)CCN(C(=O)C#CC(C)(C)N(C)C)CC3)C(=O)N3CCCC(N3)C(=O)OCC(C)(C)C2)C1 , give the reported viability, T/C.
output: 101

* * *

# IC50 annotations
# Test system: 362531-283-R-J2-PDC complex spheroid viability
# Test: Anticancer human tumor 362531-283-R-J2-PDC cell line growth inhibition [RAS];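 further: spheroids exposed to the agents for 7 days before readout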
# Reported Conditions: curve of first compound; second compound 0.0316 µM
Write the number in nM without appending the unit.

Compound: C=CC(=O)Nc1cc(Nc2nccc(-c3cn(C)c4ccccc34)n2)c(OC)cc1N(C)CCN(C)C + C#Cc1c(F)ccc2cc(O)cc(-c3ncc4c(N5CC6CCC(C5)N6)nc(OCC56CCCN5CC(F)C6)nc4c3F)c12
IC50, nM: 526
--
Compound: CCC(CC)c1cc(NC2CCC(N)C2)n2nccc2n1 (centres undefined) + C#Cc1c(F)ccc2cc(O)cc(-c3ncc4c(N5CC6CCC(C5)N6)nc(OCC56CCCN5CC(F)C6)nc4c3F)c12
IC50, nM: 4960

input: For the compound shown here, Nc1ccn(C2OC(CO)C(O)C2(F)F)c(=O)n1 (centres undefined) + C=CC(=O)N1CCN(c2nc(OCC3CCCN3C)nc3c(F)c(-c4nc(N)cc(C)c4C(F)(F)F)c(Cl)cc23)C(C)C1 , give the reported IC50.
output: 154

input: For the compound shown here, CC(=O)OC12COC1CC(O)C1(C)C(=O)C(O)C3=C(C)C(OC(=O)C(O)C(NC(=O)OC(C)(C)C)c4ccccc4)CC(O)(C(OC(=O)c4ccccc4)C21)C3(C)C (centres undefined) + C=CC(=O)N1CCN(c2nc(OCC3CCCN3C)nc3c(F)c(-c4nc(N)cc(C)c4C(F)(F)F)c(Cl)cc23)C(C)C1 , give the reported IC50.
output: 212

input: For the compound shown here, CCc1c2c(nc3ccc(O)cc13)-c1cc3c(c(=O)n1C2)COC(=O)[C@]3(O)CC + C=CC(=O)N1CCN(c2nc(OCC3CCCN3C)nc3c(F)c(-c4nc(N)cc(C)c4C(F)(F)F)c(Cl)cc23)C(C)C1 , give the reported IC50.
output: 30.2

input: For the compound shown here, Cc1nc(N2CCC3(CC2)COC(C)C3N)c(CO)nc1Sc1ccnc(N)c1Cl (centres undefined) + C#Cc1c(F)ccc2cc(O)cc(-c3ncc4c(N5CC6CCC(C5)N6)nc(OCC56CCCN5CC(F)C6)nc4c3F)c12 , give the reported IC50.
output: 5180

input: For the compound shown here, O=C(c1ccc(F)c(F)c1Nc1ccc(I)cc1F)N1CC(O)([C@@H]2CCCCN2)C1 + C=CC(=O)N1CCN(c2nc(OCC3CCCN3C)nc3c(F)c(-c4nc(N)cc(C)c4C(F)(F)F)c(Cl)cc23)C(C)C1 , give the reported IC50.
output: 306

input: For the compound shown here, O=C(c1ccc(F)c(F)c1Nc1ccc(I)cc1F)N1CC(O)([C@@H]2CCCCN2)C1 + C#Cc1c(F)ccc2cc(O)cc(-c3ncc4c(N5CC6CCC(C5)N6)nc(OCC56CCCN5CC(F)C6)nc4c3F)c12 , give the reported IC50.
output: 413

input: For the compound shown here, NC1c2ccccc2OC12CCN(c1cnc3c(N4CCCc5ncccc54)n[nH]c3n1)CC2 (centres undefined) + C#Cc1c(F)ccc2cc(O)cc(-c3ncc4c(N5CC6CCC(C5)N6)nc(OCC56CCCN5CC(F)C6)nc4c3F)c12 , give the reported IC50.
output: 354
